- procedure.details: Quantitative High-Throughput drug screen in 47 multiple myeloma cell lines against the NCATS MIPE library collection: MM1R_ATCC cell viability assay (AID 1918981); further: nearly all actives have a fitted effect of over 35% in size
- settings: MM1R multiple myeloma cells, CellTiter-Glo viability, 48 h; series mostly up to 45.8 µM
Records with an inconclusive call do not appear. Activity calls are given as the source filed them. The call rests on the fitted dose curve; in most records, active means well fitted cell-killing curve with a large enough effect; inconclusive means small, poorly fitted or top-dose-only effect, or effect the other way; inactive means no such curve, though single readings can be large or run the other way.
Classes used: T = active, F = inactive

[
  {
    "compound": "O=C(O)CCCCC(CCSCc1ccccc1)SCc1ccccc1 (centres undefined)",
    "label.class": "F"
  },
  {
    "compound": "COc1cc([C@@H]2c3cc4c(cc3[C@H](O)[C@H]3COC(=O)[C@@H]23)OCO4)cc(OC)c1OC",
    "label.class": "T"
  },
  {
    "compound": "CC(=O)N[C@@H]1[C@H](O[C@@H]2c3ccc(c(Cl)c3)Oc3cc4cc(c3O[C@H]3O[C@H](CO)[C@@H](O)[C@H](O)[C@H]3NC(=O)CCCCCCCC(C)C)Oc3ccc(cc3Cl)C[C@H]3NC(=O)[C@H](N)c5ccc(O)c(c5)Oc5cc(O)cc(c5)[C@H](NC3=O)C(=O)N[C@H]4C(=O)N[C@H]3C(=O)N[C@@H]2C(=O)N[C@@H](C(=O)O)c2cc(O)cc(O[C@H]4O[C@H](CO)[C@@H](O)[C@H](O)[C@H]4O)c2-c2cc3ccc2O)O[C@H](CO)[C@@H](O)[C@@H]1O",
    "label.class": "F"
  },
  {
    "compound": "C=CCNC1=C2C[C@@H](C)C[C@H](OC)[C@@H](O)[C@@H](C)C=C(C)[C@H](OC(N)=O)[C@@H](OC)C=CC=C(C)C(=O)NC(=CC1=O)C2=O",
    "label.class": "T"
  }
]
